TEST_CONTEXT: 298 K; 101.33 kPa; Liquid
Catalogue of compounds with associated viscosity

# COMPOUND, UNITS_OF_MEASURE, viscosity
measured = [
    ("CCCCn1cc[n+](C)c1.COCCOCCOS(=O)(=O)[O-] [1-butyl-3-methylimidazolium 2-(2-methoxyethoxy)ethyl sulfate]", "mPa·s", 1033),
    ("CCCCCCCCCCCCCC[N+](C)(CCOCCOCCOCCOCCOCCO)CCOCCOCCOCCOCCOCCO.COS(=O)(=O)[O-]", "mPa·s", 2790),
    ("CCn1cc[n+](C)c1.O=S(=O)([N-]S(=O)(=O)C(F)(F)F)C(F)(F)F", "mPa·s", 32),
]

src = the NIST ThermoML archive (doi:10.1016/j.jct.2005.03.013)
